Kindly supply the reported IC50 values for the records listed here.
Target: T1, human folate receptor alpha (hFRα), recombinant protein (human, UniProt P15328 25-233)
T1 construct: Bought recombinant proteins (His-tagged, or biotinylated via Avi-tag, e.g. AcroBiosystems FO1-H82E2, F01-H52H1); also called hFOLR1; huFOLR1
T1 sequence (P15328 25-233 limits assumed): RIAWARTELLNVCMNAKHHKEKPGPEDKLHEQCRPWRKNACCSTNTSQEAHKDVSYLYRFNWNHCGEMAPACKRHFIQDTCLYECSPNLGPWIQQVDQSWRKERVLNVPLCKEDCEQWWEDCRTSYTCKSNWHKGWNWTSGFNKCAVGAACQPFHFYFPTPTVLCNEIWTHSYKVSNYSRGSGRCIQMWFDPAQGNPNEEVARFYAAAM
Assay: competition AlphaLISA against 2MFR67-Flag3-His6 on human FRα
Numbers only, in nM.

These solved cases illustrate the format of a correct answer.
binder="P01500003: 2HF019(Q1E, Q5V, Q108L)-HIS6 (VHH, Entry includes the tag; also called 2HFO19 (P01500003); Nb19) VHH: EVQLVESGGGLVQPGGSLRVSCAASGFPFSTVYMSWVRQAPGKGLEWVSGINNDGGVIDYADSVKGRFTISRDNAKNTLYLQLNSLKPEDTALYFCARGRSFVATLSSSLRGQGTLVTVSS" value_kind=IC50 measurement=7.55
binder="P01500005: 2MFR67(Q1E, Q5V, Q108L)-HIS6 (VHH, Entry includes the tag; also called 2MFR67 (P01500005); P0150005) VHH: EVQLVESGGGLVQAGGSLRLSCAASGSGFSGMIMGWYRQAPGKQRELVATVTSHGTTNYADSVKGRFTISREDSKNTVLLQMNSLKPEDTAVYYCNAHFPGIYWGKGTLVTVSS" value_kind=IC50 measurement=5.53

Then this binder:
Value lookup for IC50; key = P01500004: 2HF042(Q1E, Q5V, Q108L)-HIS6 (VHH, Entry includes the tag; also called 2HFO42 (P01500004); Nb42) VHH: EVQLVESGGGLVQAGGSLRLSCAASGSGFSGMIMGWYRQVPGKQRELVATVTSHGTTNYADSVKGRFTISRDNAKNTVLLQMNSLKPEDTAVYYCNAHFPGIYWGKGTLVTVSS
39
